Test system: SAS
Assay: Cell viability analysis (WST-1), SAS
Format: cell-based
Settings: 72 h, Table 4, repeated experiments, drug 10 μM, read-out: survival rate (viability) of cancer cells, SAS
Structures can show the parent of a compound that is named as a salt.
Readout Kind: viability at 10 µM

>  <Compound>
CCOC(=O)C1=C(COCCN)NC(C)=C(C(=O)OC)C1c1ccccc1Cl (centres unmarked)

>  <viability at 10 µM>
99.2%

$$$$
>  <Compound>
OC(CNCC(O)C1CCc2cc(F)ccc2O1)C1CCc2cc(F)ccc2O1 (centres unmarked)

>  <viability at 10 µM>
75.6%

$$$$
>  <Compound>
CC1=C(C(=O)OC(C)C)C(c2cccc([N+](=O)[O-])c2)C(C(=O)OC2CN(C(c3ccccc3)c3ccccc3)C2)=C(N)N1 (centres unmarked)

>  <viability at 10 µM>
76.8%

$$$$
>  <Compound>
CCCCc1nc(Cl)c(CO)n1Cc1ccc(-c2ccccc2-c2nn[nH]n2)cc1

>  <viability at 10 µM>
95.7%

$$$$

API: the following record is the query input.
// query For the record COc1cc2nc(N3CCN(C(=O)c4ccco4)CC3)nc(N)c2cc1OC [Prazosin HCl] , what value of viability at 10 µM is listed for SAS?
// result 114%

###

Test system: Hep3B
Test: Cell viability analysis (WST-1), Hep3B
Assay type: cell-based
Conditions: Table 4, repeated experiments, drug 10 μM, 72 hours
Excerpt: Subculture the different types of cancer cells. […] The cell numbers were counted and reseed as 2×10^6 in cell culture plate/flask. […] Removing the original culture medium from 96-well plate. […] Detecting and calculating the survival rate of each cancer cells with an ELISA reader at OD450 nm. […]
Collected survival rate (viability) of cancer cells, Hep3B values appear next to each entry.

>  <Molecule>
CCOC(=O)C1=C(COCCN)NC(C)=C(C(=O)OC)C1c1ccccc1Cl (stereo not shown) [Amlodipine (Norvase), Amlodipine]

>  <System Tested>
Hep3B

>  <Data Value>
99.22

$$$$
>  <Molecule>
CC(C)c1c(C(=O)Nc2ccccc2)c(-c2ccccc2)c(-c2ccc(F)cc2)n1CC[C@@H](O)C[C@@H](O)CC(=O)[O-].CC(C)c1c(C(=O)Nc2ccccc2)c(-c2ccccc2)c(-c2ccc(F)cc2)n1CC[C@@H](O)C[C@@H](O)CC(=O)[O-].[Ca+2]

>  <System Tested>
Hep3B

>  <Data Value>
91.86

$$$$

// query Looking for the measured survival rate (viability) of cancer cells, Hep3B of CCOC(=O)C1=C(COCCN)NC(C)=C(C(=O)OC)C1c1ccccc1Cl (stereo not shown) [Amlodipine besylate (Norvase), Amlodipine besylate] , can you help?
// result 123.4192

// query Which value of survival rate (viability) of cancer cells, Hep3B has been reported for "O=C([O-])C[C@H](O)C[C@H](O)/C=C/c1c(C2CC2)nc2ccccc2c1-c1ccc(F)cc1.O=C([O-])C[C@H](O)C[C@H](O)/C=C/c1c(C2CC2)nc2ccccc2c1-c1ccc(F)cc1.[Ca+2]" in the records?
// result 96.34

###

Some molecules, each annotated with its measured viability at 10 µM.
System: A375 (Amelanotic Melanoma)
Assay: Cell viability analysis (WST-1), A375
Assay type: cell-based
Settings: Homo sapiens, A-375, 72 h, Table 3, drug 10 μM, WST-1, OD450 nm, lower viability = better inhibition, read-out: survival rate (viability) of cancer cells, A375
Structures can show the parent of a compound that is named as a salt.
All answers are understood in %, so give the number only.

Examples with their reported viability at 10 µM follow.
>  <Molecule>
CC(=O)O[C@H]1C[C@@H]2CC[C@@H]3[C@H](CC[C@@]4(C)[C@H]3C[C@H]([N+]3(C)CCCCC3)[C@@H]4OC(C)=O)[C@@]2(C)C[C@@H]1[N+]1(C)CCCCC1

>  <Unit Of Measurement>
%

>  <viability at 10 µM>
75.4

$$$$
>  <Molecule>
CCCNCC(O)COc1ccccc1C(=O)CCc1ccccc1 (stereo not shown) [Propafenone (Rytmonorm), Propafenone]

>  <Unit Of Measurement>
%

>  <viability at 10 µM>
95.8

$$$$
>  <Molecule>
O=C(O)/C=C/c1ccc(Cn2ccnc2)cc1

>  <Unit Of Measurement>
%

>  <viability at 10 µM>
74.7

$$$$

For the next question, use this molecule.
// query If you can, please state the reported viability at 10 µM value of C#CCN[C@@H]1CCc2ccccc21 [Rasagiline mesylate] .
// result 76.9
